- System: SW-620 colon
- measurement-notes: NCI-60 one-dose screen, 48 h
- test-settings: 10 µM unless noted
About 83,000 compounds went through this panel and 20% of them were active in at least one assay; those are over-represented in the sample as a whole. Active and inactive are the calls of the source. The calls were made as follows: active = growth percent below 10; inactive = the rest.
Log the outcome using a class from yes = active, no = inactive

{"columns": ["molecule", "assigned-category"],
 "data": [
  ["Cc1cc(C(=O)/C=C/c2ccc[nH]2)ccc1-n1ccc(C(F)(F)F)n1", "no"],
  ["C=CCN1C(=O)/C(=C/C(=O)OC)S/C1=N\\NC(=O)c1cc2ccc1/C=C\\c1ccc(cc1)/C=C\\2", "no"],
  ["N#Cc1c(-c2ccccc2)nc2c(c(-c3ccccc3)nn2-c2ccccc2)c1-c1ccc(O)cc1", "no"],
  ["CC(C)(C)[Si](C)(C)OC1[C@@H](O[Si](C)(C)C(C)(C)C)[C@@H](CNC(=O)NC(=O)CCl)O[C@H]1n1cnc2c(NC(=O)Nc3ccccc3)ncnc21 (some centres undefined)", "yes"],
  ["COCc1cnccc1NC1CCCCCC1", "no"]
]}

Exercise: Could you check what this test reported for "CCCCCCNC(=O)Oc1ccc(/C(=C(\C)c2ccccc2)c2ccc(OCCCN(C)C)cc2)cc1" ?
Key: no

Exercise: Could you check what this test reported for CCCCC/C=C/C(C)=C/C1CC(C)C/C=C/CCC(O)C(OC(N)=O)CCC(C)CC(O)C(C)C(=O)O1 (centres undefined) ?
Key: no

Exercise: Could you check what this test reported for "COc1cccc(-c2nc3occn3c2-c2ccnc(NCCCNS(=O)(=O)c3ccc(C(F)(F)F)cc3)n2)c1" ?
Key: no

Exercise: Could you check what this test reported for "CCOC(=O)[C@@H](C)C[C@H](Cc1ccccc1)NC(=O)c1csc([C@@H](C[C@H](C(C)C)N(C)C(=O)[C@@H](NC(=O)[C@H]2C[C@H](O[Si](C)(C)C(C)(C)C)CCN2C)C(C)C)OC(C)=O)n1" ?
Key: no

----------
- Test system: SK-MEL-5 melanoma
- measurement-notes: NCI-60 one-dose screen, 48 h (100 = growth as untreated, 0 = no growth, -100 = all killed)
- test-settings: 10 µM unless noted
- Experimental: Growth inhibition of the SK-MEL-5 human tumor cell line is measured as a screen for anti-cancer activity. Cells are grown in 96 well plates and exposed to the test compound for 48 hours. Compounds are tested at a single concentration, which is 10^-5 M for most compounds. The reported endpoint is percent growth (GI% or GIPRCNT), where numbers from 0 - 100% represent growth inhibition, and numbers from -100% - 0 represent cell death. For example, a value of 40 represents 60% growth inhibition. […]
About 83,000 compounds went through this panel and 20% of them were active in at least one assay; those are over-represented in the sample as a whole. Activity calls are given as the source filed them. The calls were made as follows: active = growth percent below 10; inactive = the rest.
Overview of reported growth across a group of compounds:

{"columns": ["compound", "readout-label", "endpoint-value"],
 "data": [
  ["C=C1C(=O)O[C@H]2[C@H]1CC/C(CNC(=O)C(C)c1ccc(CC(C)C)cc1)=C\\CC[C@@]1(C)O[C@@H]21 (some centres not stated)", "growth", "61.3% (inactive)"],
  ["C=C1C(=O)O[C@H]2[C@H]1CC/C(COC(=O)NCc1c[nH]c3ccc(Cl)cc13)=C\\CC[C@@]1(C)O[C@@H]21", "growth", "-17.6% (active)"],
  ["N#Cc1cc(-c2nc3ccccc3s2)c(=O)n(NS(=O)(=O)c2ccccc2)c1N", "growth", "101% (inactive)"]
]}

Exercise: Identify the reported growth for the following entry. "COc1ccc(C(=O)CSc2nc(-c3cc(OC)ccc3OC)cc(-c3ccc(Cl)cc3)c2C#N)cc1"
Key: 36.6% (inactive)

Exercise: Identify the reported growth for the following entry. "CN(C)c1ccc(Nc2c3ccccc3nc3cc(NC(=O)CCN4CCCC4)ccc23)cc1"
Key: 0.523% (active)

Exercise: Identify the reported growth for the following entry. O=C(/C(=C\c1ccc([N+](=O)[O-])cc1)S(=O)Cc1ccc(F)cc1)c1ccc(F)cc1 (configuration not stated)
Key: 76.7% (inactive)

Exercise: Identify the reported growth for the following entry. "Cc1cc(Cl)nc(N(CCNc2ccnc3cc(Cl)ccc23)Cc2ccccn2)n1"
Key: 41.3% (inactive)

Exercise: Identify the reported growth for the following entry. "C/C(=N\NC(=O)CSc1nc2ccccc2c(=O)n1Cc1ccc(S(N)(=O)=O)cc1)c1ccc(F)cc1"
Key: 105% (inactive)

Exercise: Identify the reported growth for the following entry. "Cc1ccc(NC(=O)Cc2ccc(/C=C/C(=O)c3ncc[nH]3)cc2)cc1"
Key: 73.9% (inactive)

Exercise: Identify the reported growth for the following entry. "Cc1cnc(C(=O)Nc2nc3ccc(S(=O)(=O)Nc4ccc(C(C)(C)C)cc4)cc3[nH]2)cn1"
Key: 10.9% (inactive)

Exercise: Identify the reported growth for the following entry. "O=C(Cn1c(C(=O)c2ccccc2)nc2ccccc21)c1ccc(F)cc1"
Key: 60.7% (inactive)

Exercise: Identify the reported growth for the following entry. "O=C(NNc1nc2c(F)cccc2n2cccc12)c1cnccn1"
Key: 5.96% (active)

Exercise: Identify the reported growth for the following entry. "O=C(Cn1c[n+](CC(=O)c2ccc([N+](=O)[O-])cc2)c2ccccc21)Nc1cccc2cccnc12"
Key: 95.8% (inactive)

Exercise: Identify the reported growth for the following entry. "Cn1c(-c2c(N)n(CCCN3CCOCC3)c3nc(C#N)c(C#N)nc23)nc2ccccc21"
Key: 92.9% (inactive)

Exercise: Identify the reported growth for the following entry. "COc1ccc(C(=O)Cn2c(C(=O)c3ccccc3)nc3ccccc32)cc1"
Key: -1.14% (active)

Exercise: Identify the reported growth for the following entry. COc1ccc(/C=N/NC(=O)c2cnn3c2NC(c2ccccc2)C3)cc1OC (configuration not stated)
Key: 66.7% (inactive)

Exercise: Identify the reported growth for the following entry. "c1ccc2cc(Cn3c(-c4cccc5ccccc45)[n+](Cc4ccc5ccccc5c4)c4c5ccccc5c5ccccc5c43)ccc2c1"
Key: -98.1% (active)

Exercise: Identify the reported growth for the following entry. "COc1ccc(C(=O)c2nc3ccccc3n2CC(=O)c2ccc(F)cc2)cc1"
Key: 88% (inactive)

Exercise: Identify the reported growth for the following entry. "CCOC(=O)Oc1c(OC)cc(C(=O)c2ccc(OC)c(OC(=O)CCl)c2OC)cc1OC"
Key: 34.9% (inactive)

Exercise: Identify the reported growth for the following entry. "COc1cc(/C=C\c2cc(OC)c(OC)c(OC)c2)cc(N)c1OC"
Key: 86.7% (inactive)

Exercise: Identify the reported growth for the following entry. "CN(C)CCC(=O)c1ccc([N+](=O)[O-])cc1"
Key: 99% (inactive)

Exercise: Identify the reported growth for the following entry. "COc1cc2nc(-c3ccc(C(F)(F)F)cc3)cc(OCCCN3CCOCC3)c2cc1OC"
Key: -33.1% (active)

Exercise: Identify the reported growth for the following entry. COc1ccc(-c2nc(S(=O)(=O)c3ccccc3)c(S(=O)CC(=O)N3CCC(C)CC3)o2)cc1 (configuration not stated)
Key: 72.8% (inactive)

Exercise: Identify the reported growth for the following entry. "Cc1c(C(=O)NCCC(=O)NO)sc2ncnc(Nc3ccc(F)c(Cl)c3)c12"
Key: 102% (inactive)

----------
- System: ACHN renal
- measurement-notes: NCI-60 one-dose screen, 48 h (100 = growth as untreated, 0 = no growth, -100 = all killed)
- test-settings: 10 µM unless noted
The panel holds about 83,000 compounds, 20% with a hit somewhere; the sample as a whole holds those more often.
Overview of reported growth across a group of compounds:
# output: bare number, implied unit %

Below are worked cases with known answers.
{"columns": ["smiles-representation", "experimental-target", "unit-abbrev", "growth"],
 "data": [
  ["N#C/C(=C\\c1ccccn1)c1nc2cc(Cl)ccc2s1", "ACHN renal", "%", 75.8],
  ["C=CCN1C(=O)/C(=C/C(=O)OC)S/C1=N\\NC(=O)c1cc2ccc1/C=C\\c1ccc(cc1)/C=C\\2", "ACHN renal", "%", 87.9]
]}

Here's the next entry for you.
Exercise: Identify the reported growth for the following entry. "C[C@H]1[C@H](C)CC[C@]2(C(=O)NCC#CCN3CCN(C)CC3)CC[C@]3(C)C(=CC[C@@H]4[C@@]5(C)Cc6c([nH]c7ccccc67)C(C)(C)[C@@H]5CC[C@]43C)[C@H]12"
Key: 96.3

----------
- Tested on: OVCAR-8 ovarian
- measurement-notes: NCI-60 one-dose screen, 48 h
- test-settings: 10 µM unless noted
The panel holds about 83,000 compounds, 20% with a hit somewhere; the sample as a whole holds those more often. Calls of active or inactive are those of the source. The calls were made as follows: active = growth percent below 10; inactive = the rest.
Log the outcome using a class from active, inactive

# count of solved cases: 5
{"columns": ["compound", "experimental-target", "assigned-category"],
 "data": [
  ["C[C@H](c1nc2ccc(N)cc2[nH]1)[C@H]1CC[C@H]2[C@@H]3CCC4=CC(=O)CC[C@]4(C)[C@H]3CC[C@]12C", "OVCAR-8 ovarian", "inactive"],
  ["O=C(CNCCN1CCOCC1)N1c2cccc3cccc(c23)N(C(=O)CNCCN2CCOCC2)C1c1cn(-c2ccccc2)nc1-c1cccc([N+](=O)[O-])c1", "OVCAR-8 ovarian", "inactive"],
  ["COC(=O)C(CC=O)C(=O)C(=O)Nc1cccc(C(F)(F)F)c1 (stereo unspecified)", "OVCAR-8 ovarian", "inactive"],
  ["Nc1nc(Nc2ccccc2SSc2ccccc2Nc2nc(N)nc(-c3cccs3)n2)nc(-c2ccsc2)n1", "OVCAR-8 ovarian", "inactive"],
  ["S=c1cc(S)c2cc(Br)ccc2[nH]1", "OVCAR-8 ovarian", "inactive"]
]}

Exercise: Could you check what this test reported for "CC1(C)NCCC[C@]2(C)[C@H]3CC(=O)[C@H]4[C@@H]5C[C@](C)(CO)CC[C@]5(C)CC[C@@]4(C)[C@]3(C)CC[C@@H]12" ?
Key: inactive

Exercise: Could you check what this test reported for "COc1ccc(/C=C2\Oc3cc(OCCCN4CCCCC4)ccc3C2=O)cc1OC" ?
Key: inactive

Exercise: Could you check what this test reported for "COc1ccc(C(=O)c2nc3ccccc3n2CC(=O)c2ccc(Cl)cc2)cc1" ?
Key: inactive

Exercise: Could you check what this test reported for "O=C(Cn1c(C(=O)c2ccccc2)nc2ccccc21)c1ccc(F)cc1" ?
Key: inactive

Exercise: Could you check what this test reported for Cn1c(N2NC(=O)C(N=Nc3ccc(S(N)(=O)=O)cc3)C2=O)nc(-c2ccco2)c(C#N)c1=O (stereo unspecified) ?
Key: inactive

Exercise: Could you check what this test reported for "Nc1c(S(=O)(=O)O)cc2c3c(cccc13)C(=O)OC2=O" ?
Key: inactive

Exercise: Could you check what this test reported for "Cc1cc2nc3c4cccc(O)c4n(CCN(C)C)c3nc2cc1C" ?
Key: inactive

Exercise: Could you check what this test reported for "CCNc1nc2ccc(Nc3ccnc4cc(Cl)ccc34)cc2[nH]1" ?
Key: inactive
